# target-system: T1, mouse SPNS2 (mouse, UniProt Q91VM4 1-549)
# T1 sequence: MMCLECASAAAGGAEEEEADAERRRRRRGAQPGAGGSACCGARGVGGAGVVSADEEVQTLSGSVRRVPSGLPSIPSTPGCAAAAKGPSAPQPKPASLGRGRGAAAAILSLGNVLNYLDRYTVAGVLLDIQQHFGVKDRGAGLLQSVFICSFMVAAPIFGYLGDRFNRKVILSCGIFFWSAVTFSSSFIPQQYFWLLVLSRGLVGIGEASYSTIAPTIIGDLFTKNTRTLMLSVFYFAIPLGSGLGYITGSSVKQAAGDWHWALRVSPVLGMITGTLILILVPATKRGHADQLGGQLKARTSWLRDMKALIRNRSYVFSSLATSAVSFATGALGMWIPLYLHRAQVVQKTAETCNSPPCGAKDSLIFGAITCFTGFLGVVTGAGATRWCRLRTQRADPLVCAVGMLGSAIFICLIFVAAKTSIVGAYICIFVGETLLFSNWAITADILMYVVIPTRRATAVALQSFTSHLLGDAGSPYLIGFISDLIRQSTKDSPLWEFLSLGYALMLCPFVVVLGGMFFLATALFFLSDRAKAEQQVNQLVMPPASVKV
# assay: cell-based or functional assay
assay-endpoint: pIC50, S1P transport inhibition (S1PR3 Ca2+ FLIPR bioassay)

Prompt: Name the recorded pIC50, S1P transport inhibition (S1PR3 Ca2+ FLIPR bioassay) for 93-1310F (antibody, IgG2b, V domains shown) VH: EVQLVETGGGLVQPGSSLKLSCATSGFTFSDTWMSWVRQAPGKGLEWVALIKDKNSNYEANYAESVKGRFTISRDDSKRRVYLQMFTLRDQDTATYYCTSHEDFYYYSSYYFDYWGHGVMVTVSS VL: DIVLTQSPATLSVTPGESVSLSCRASQGISTSIHWYQQKSNGSPRLLIKYASQSISGIPSRFSGSGSGTDFTLRINRVESEDFSVYYCQQTYSLPLTFGSGTRLEIKR .
Completion: 7.9 pIC50 (M)
